Molecular target: HCK (human)
Assay: KINOMEscan competition binding
Settings: compound 10.0 µM
Below is a list of entries, each paired with its recorded kinase still bound, per cent of control value.
// units = %; emit number, no label

C=CC(=O)Nc1ccc(C(=O)c2sc(Nc3ccc(N4CCN(C)CC4)cc3OC)nc2N)cc1 ... 100
O=c1[nH]c2ccccc2n1C1CCN(Cc2ccc(-c3nc4cc5[nH]cnc5cc4nc3-c3ccccc3)cc2)CC1 ... 90

// kinase still bound, per cent of control value for N#C/C(=C1/Nc2ccccc2S1)c1ccnc(NCCc2cccnc2)n1 : 100

// kinase still bound, per cent of control value for CCCS(=O)(=O)Nc1ccc(F)c(C(=O)c2c[nH]c3ncc(Cl)cc23)c1F : 19

// kinase still bound, per cent of control value for COc1ccc(N(C(=O)Oc2cc(C(=O)Nc3cccc(C(F)(F)F)c3)ccc2C)c2ccnc(Nc3ccc(N4CCN(C)CC4)cc3)n2)c(OC)c1 : 0.2

// kinase still bound, per cent of control value for CCc1nc(-c2cccc(C)c2)c(-c2ccnc(NC(=O)c3ccccc3)c2)s1 : 31

// kinase still bound, per cent of control value for COc1cc2ncnc(Nc3cccc(Cl)c3)c2cc1OC : 6.8

// kinase still bound, per cent of control value for CCN(CCO)CCCOc1ccc2c(Nc3cc(CC(=O)Nc4cccc(F)c4)[nH]n3)ncnc2c1 : 31

// kinase still bound, per cent of control value for CCOc1cc(N2CCC(O)CC2)ccc1Nc1ncc2c(n1)N(C)c1ccccc1C(=O)N2C : 100

* * *

Below is a list of entries, each paired with its recorded kinase still bound, per cent of control value.
Biological target: INSRR (human) (UniProt P14616)
Sequence (P14616 whole entry, looked up): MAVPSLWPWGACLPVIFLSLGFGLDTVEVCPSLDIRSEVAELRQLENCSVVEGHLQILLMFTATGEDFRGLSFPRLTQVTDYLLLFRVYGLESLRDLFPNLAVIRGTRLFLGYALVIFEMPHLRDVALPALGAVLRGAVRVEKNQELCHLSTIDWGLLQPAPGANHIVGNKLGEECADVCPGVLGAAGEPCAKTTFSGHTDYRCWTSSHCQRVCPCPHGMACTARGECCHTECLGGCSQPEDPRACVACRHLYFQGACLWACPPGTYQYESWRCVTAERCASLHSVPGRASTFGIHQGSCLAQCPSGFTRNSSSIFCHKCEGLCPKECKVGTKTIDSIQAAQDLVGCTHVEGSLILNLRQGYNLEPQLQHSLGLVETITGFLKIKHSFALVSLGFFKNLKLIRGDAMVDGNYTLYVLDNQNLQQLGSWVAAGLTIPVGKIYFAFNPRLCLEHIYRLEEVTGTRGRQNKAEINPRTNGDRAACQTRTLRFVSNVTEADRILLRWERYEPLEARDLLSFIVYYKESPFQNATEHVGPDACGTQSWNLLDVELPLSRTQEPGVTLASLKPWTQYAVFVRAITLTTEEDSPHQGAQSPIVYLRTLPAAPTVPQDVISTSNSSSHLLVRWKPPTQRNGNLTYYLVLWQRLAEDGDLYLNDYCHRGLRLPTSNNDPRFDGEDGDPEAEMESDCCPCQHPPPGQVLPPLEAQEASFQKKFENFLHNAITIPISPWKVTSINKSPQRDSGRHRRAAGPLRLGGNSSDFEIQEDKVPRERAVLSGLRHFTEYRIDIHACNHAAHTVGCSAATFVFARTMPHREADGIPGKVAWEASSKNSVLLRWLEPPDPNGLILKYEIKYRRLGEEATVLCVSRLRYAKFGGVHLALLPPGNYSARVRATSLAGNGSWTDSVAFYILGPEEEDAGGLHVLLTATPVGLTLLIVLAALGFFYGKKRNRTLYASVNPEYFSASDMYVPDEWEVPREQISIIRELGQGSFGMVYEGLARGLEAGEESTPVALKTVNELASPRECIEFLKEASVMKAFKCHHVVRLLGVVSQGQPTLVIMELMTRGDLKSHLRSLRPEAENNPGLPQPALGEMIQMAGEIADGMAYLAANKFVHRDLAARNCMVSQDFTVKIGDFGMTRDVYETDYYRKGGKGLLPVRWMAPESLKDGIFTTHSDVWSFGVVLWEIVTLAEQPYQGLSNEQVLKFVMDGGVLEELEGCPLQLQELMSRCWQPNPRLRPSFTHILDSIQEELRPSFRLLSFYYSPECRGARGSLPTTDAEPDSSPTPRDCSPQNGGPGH
Assay: KINOMEscan competition binding
Conditions: compound 10.0 µM
// units = %; emit number, no label

COc1cc(N2CCC(C(N)=O)CC2)ccc1Nc1nc(N)c(Cl)c(Nc2ccccc2S(=O)(=O)C(C)C)n1 ... 1.2
CC(=O)c1c(C)c2cnc(Nc3ccc(N4CCNCC4)cn3)nc2n(C2CCCC2)c1=O ... 98
COc1cc(C)c(Sc2cnc(NC(=O)c3ccc(CNC(C)C(C)C)cc3)s2)cc1C(=O)N1CCN(C(C)=O)CC1 (centres undefined) ... 0.35
N#C/C(=C1/Nc2ccccc2S1)c1ccnc(NCCc2cccnc2)n1 ... 100
COc1cc2c(Nc3ccc(NC(=O)c4ccccc4)cc3)ncnc2cc1OCCCN1CCOCC1 ... 100

// kinase still bound, per cent of control value for CCN1CCN(Cc2ccc(NC(=O)c3ccc(C)c(/C=C/c4cnc5[nH]ccc5c4OC)c3)cc2C(F)(F)F)CC1 : 100

// kinase still bound, per cent of control value for CC1=C(C(=O)Nc2cc3cn[nH]c3cc2F)C(c2ccc(C(F)(F)F)cc2)CC(=O)N1 (centres undefined) : 99

// kinase still bound, per cent of control value for CCOc1cc(N2CCC(O)CC2)ccc1Nc1ncc2c(n1)N(C)c1ccccc1C(=O)N2C : 100

// kinase still bound, per cent of control value for CCc1nc(-c2cccc(C)c2)c(-c2ccnc(NC(=O)c3ccccc3)c2)s1 : 100

// kinase still bound, per cent of control value for COc1cc2ncnc(Nc3cccc(Cl)c3)c2cc1OC : 100

// kinase still bound, per cent of control value for C=CC(=O)Nc1ccc(C(=O)c2sc(Nc3ccc(N4CCN(C)CC4)cc3OC)nc2N)cc1 : 78

// kinase still bound, per cent of control value for CNC(=O)Nc1ccc(-c2nc(N3CC4CCC(C3)O4)c3cnn(C4CCC5(CC4)OCCO5)c3n2)cc1 : 100

// kinase still bound, per cent of control value for CCN(CCO)CCCOc1ccc2c(Nc3cc(CC(=O)Nc4cccc(F)c4)[nH]n3)ncnc2c1 : 76

// kinase still bound, per cent of control value for CCCS(=O)(=O)Nc1ccc(F)c(C(=O)c2c[nH]c3ncc(Cl)cc23)c1F : 89
